Values from ChEMBL document CHEMBL1687930

target: Kinesin-like protein KIF11 (Homo sapiens)
Sequence (P52732 whole entry): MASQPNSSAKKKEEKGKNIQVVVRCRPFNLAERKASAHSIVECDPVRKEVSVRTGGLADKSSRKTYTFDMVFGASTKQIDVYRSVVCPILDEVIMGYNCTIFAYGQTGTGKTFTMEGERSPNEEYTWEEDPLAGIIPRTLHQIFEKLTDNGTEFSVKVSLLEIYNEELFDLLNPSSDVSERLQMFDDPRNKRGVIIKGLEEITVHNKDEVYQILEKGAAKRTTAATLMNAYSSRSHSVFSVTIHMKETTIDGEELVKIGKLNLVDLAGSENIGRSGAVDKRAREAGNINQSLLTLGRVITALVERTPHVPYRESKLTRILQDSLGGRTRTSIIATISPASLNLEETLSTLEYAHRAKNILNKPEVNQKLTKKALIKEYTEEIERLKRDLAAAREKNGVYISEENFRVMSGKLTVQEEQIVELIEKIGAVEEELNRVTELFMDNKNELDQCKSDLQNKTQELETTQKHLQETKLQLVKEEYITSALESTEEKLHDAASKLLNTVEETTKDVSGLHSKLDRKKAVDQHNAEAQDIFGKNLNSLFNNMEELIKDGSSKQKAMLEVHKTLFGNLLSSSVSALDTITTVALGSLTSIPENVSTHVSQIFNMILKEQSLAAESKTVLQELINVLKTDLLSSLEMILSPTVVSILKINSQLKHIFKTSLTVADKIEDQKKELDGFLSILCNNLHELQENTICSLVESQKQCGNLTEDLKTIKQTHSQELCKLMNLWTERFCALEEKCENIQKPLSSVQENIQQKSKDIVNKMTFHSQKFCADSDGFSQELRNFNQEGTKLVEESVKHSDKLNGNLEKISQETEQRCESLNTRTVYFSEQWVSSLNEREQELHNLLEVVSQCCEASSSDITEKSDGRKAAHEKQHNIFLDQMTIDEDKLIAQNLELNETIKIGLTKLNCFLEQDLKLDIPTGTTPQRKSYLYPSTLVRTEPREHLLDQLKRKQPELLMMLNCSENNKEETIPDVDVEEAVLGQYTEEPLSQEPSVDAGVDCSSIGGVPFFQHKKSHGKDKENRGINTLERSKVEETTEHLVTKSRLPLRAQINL
pKi: −log10 of the molar value.
observed_property: pKi

CCCc1ccc(C(SC[C@H](N)C(=O)O)(c2ccccc2)c2ccccc2)cc1 :: > 7.30
N[C@@H](CSC(c1ccccc1)(c1ccccc1)c1ccc(-c2ccccc2)cc1)C(=O)O :: 5.87
CCc1ccc(C(SC[C@H](N)C(=O)O)(c2ccccc2)c2ccccc2)cc1 :: > 7.30
N[C@@H](CSC(c1ccccc1)(c1ccccc1)c1ccc(Cl)cc1)C(=O)O :: > 7.30
CSc1ccc(C(SC[C@H](N)C(=O)O)(c2ccccc2)c2ccccc2)cc1 :: > 7.30
N[C@@H](CSC(c1ccccc1)(c1ccccc1)c1ccc(C(F)(F)F)cc1)C(=O)O :: > 7.30
